Target: T1, human FGFR3 isoform IIIc (human, UniProt P22607 23-375, limits assumed)
T1 construct: also called hFGFR3IIIc; FGFR3 IIIc
T1 sequence: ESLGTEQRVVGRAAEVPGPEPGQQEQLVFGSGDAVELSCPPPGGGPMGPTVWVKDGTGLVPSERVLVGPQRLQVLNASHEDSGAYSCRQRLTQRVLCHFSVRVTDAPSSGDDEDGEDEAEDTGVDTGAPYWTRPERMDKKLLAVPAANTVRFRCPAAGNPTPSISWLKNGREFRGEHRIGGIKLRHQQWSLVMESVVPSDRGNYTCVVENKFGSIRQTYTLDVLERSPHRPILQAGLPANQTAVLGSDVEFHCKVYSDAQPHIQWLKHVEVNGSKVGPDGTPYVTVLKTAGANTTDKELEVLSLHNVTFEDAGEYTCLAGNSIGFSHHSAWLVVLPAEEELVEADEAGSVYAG
Test: reactivity grade (Table 2); method not given

binder	binding result
KC18 (antibody, V domains shown, Mouse monoclonal antibody from a hybridoma; also called anti-FGFR3 antibody KC18; KC18 mouse antibody) VH: QVQLQQSGAELVRPGASVTLSCKASGDTFTDFEIHWVKQTPVHGLEWIGDIDPETGGTAYNQKFRGRAMLTADRSSSTAYMELRSLTSEDSAVYYCTRTYDGYPYAMDYWGQGTSVTVSS VL: DIVMSQSPSSLAVSVGEKVTMSCKSSQSLLYSNNQKNYLAWYQQKPGQSPKLLIYWASTRESGVPDRFTGSGSGTDFTLTISSVKAEDLAVYYCQQYYSYRTFGGGTKLEIK	binds
KE63 (antibody, V domains shown, Mouse monoclonal antibody from a hybridoma; also called anti-FGFR3 antibody KE63) VH: QVQLQQSGAELVRPGASVTLSCKASGSTFSDFEIHWVKQTPVHGLEWIGGIDPETGGTAYNQKFKGKAILTADRSSSTAYMELRSLTSEDSAVYYCTRNYDGYSQTMDYWGQGTSVTVSS VL: NIMMTQSPSSLAVSAGEKVTMSCKSSQSVLYSSNQKNYLAWYQQKPGQSPKLLIYWASTRESGVPDRFTGSGSGTDFTLTISSVQAEDLAVYYCHQYLSSYTFGGGTKLEMK	binds
KE35 (antibody, V domains shown, Mouse monoclonal antibody from a hybridoma; also called anti-FGFR3 antibody KE35) VH: EVQLQQSGPELVKPGASVKMSCKASGYTFTDYNMHWVKQSHGKSLEWIGYINPNNGGTRYNQKFKGKATLTVNKSSSTAYMELRSLTSEDSAVYYCARERDYDGAMDYWGQGTSVTVSS VL: DIQMTQSPSSLSASLGGKVTITCKASQDINKFIAWYQHKPGKGPRLLIHYTSTLQPGIPSRFSGSGSGRDYSFSISNLEPEDIATYYCLQYDNLLWTFGGGTKLEIK	binds
